target.of.assay: UniProtKB P22607
Sequence (P22607 23-806 limits assumed): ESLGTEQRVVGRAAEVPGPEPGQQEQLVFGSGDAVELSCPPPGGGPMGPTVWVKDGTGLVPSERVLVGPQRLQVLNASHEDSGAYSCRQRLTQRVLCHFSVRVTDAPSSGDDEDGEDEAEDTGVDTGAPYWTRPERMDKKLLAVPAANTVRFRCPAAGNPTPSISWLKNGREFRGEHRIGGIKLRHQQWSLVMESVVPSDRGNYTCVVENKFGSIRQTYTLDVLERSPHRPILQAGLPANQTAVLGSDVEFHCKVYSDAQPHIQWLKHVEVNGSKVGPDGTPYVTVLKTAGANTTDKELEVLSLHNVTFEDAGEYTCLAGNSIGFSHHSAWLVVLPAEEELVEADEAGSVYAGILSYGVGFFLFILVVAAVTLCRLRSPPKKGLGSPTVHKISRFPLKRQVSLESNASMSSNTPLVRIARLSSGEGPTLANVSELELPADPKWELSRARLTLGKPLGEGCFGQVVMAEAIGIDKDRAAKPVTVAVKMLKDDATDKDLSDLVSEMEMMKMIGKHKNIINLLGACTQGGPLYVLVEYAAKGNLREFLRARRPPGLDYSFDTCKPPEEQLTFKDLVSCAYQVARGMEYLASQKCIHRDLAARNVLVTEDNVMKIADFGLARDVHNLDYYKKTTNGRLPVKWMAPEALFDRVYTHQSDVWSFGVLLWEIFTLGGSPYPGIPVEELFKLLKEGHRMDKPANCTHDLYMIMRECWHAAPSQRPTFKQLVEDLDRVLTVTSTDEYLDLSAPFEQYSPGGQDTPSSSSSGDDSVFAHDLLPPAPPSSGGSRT
test.description: Inhibition of FGFR3 at 50 uM
Activity calls are given as the source filed them. The calls are words filed in the database; no cut-off is given here.
The reply should be one of these categories: active, inactive

Reference set, count: 2
[[record]]
smiles_representation = "Nc1ncnc2c1ncn2C[C@@H]1O[C@H](CO)[C@@H](O)[C@H]1O"
category_label = "inactive"

[[record]]
smiles_representation = "Nc1nc(Nc2ccccc2)c2ncn(C[C@@H]3O[C@H](CO)[C@@H](O)[C@H]3O)c2n1"
category_label = "inactive"


Query: I'd appreciate the recorded outcome for OC[C@H]1O[C@@H](CNc2nc(NCCc3ccccc3)nc3[nH]cnc23)[C@@H](OCc2ccccc2)[C@@H]1OCc1ccccc1 from this test.
Reply: active

Query: I'd appreciate the recorded outcome for OC[C@H]1O[C@@H](CNc2nc(NCCN3CCOCC3)nc3[nH]cnc23)[C@@H](O)[C@@H]1O from this test.
Reply: active
